tested on: biotinyl-Met-oxazolone; assay: self-aminoacylation, catalytic enhancement (BMO) (fold over background); higher = more active; k-Seq, kA / k0A0; sequences stand for … in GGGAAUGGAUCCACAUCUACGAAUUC…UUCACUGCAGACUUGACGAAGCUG
Variants at the floor of the assay were thinned out.
# self-aminoacylation listing for each entry below
Just the number.

>  <SEQUENCE CONTENT>
AUUACCUUGGUCAUCGAGUGA [Fam2.1 aminoacylation ribozyme variant]

>  <NUMERIC RESULT>
6.66

$$$$

Q: Request: self-aminoacylation, test system biotinyl-Met-oxazolone, entry ACUACCCUGGUCACCGAGUGA [Fam2.1 aminoacylation ribozyme variant]
Ans: 9.06

Q: Lookup: self-aminoacylation / biotinyl-Met-oxazolone / AUUCACCUAAGUCAGCGGGUG [Fam2.2 aminoacylation ribozyme variant]
Ans: 3.78

Q: Enter reported self-aminoacylation observed with biotinyl-Met-oxazolone for ACACACUUCCAGCAAUCGGUC [Fam1B.1 aminoacylation ribozyme variant]
Ans: 1.31

Q: Form field: self-aminoacylation recorded for AAGUUUGCUAACAGUCGAAAG [Fam3.1 aminoacylation ribozyme variant] with biotinyl-Met-oxazolone (enter value)
Ans: 0.838

Q: Return self-aminoacylation measured with biotinyl-Met-oxazolone given this sequence: AUUACCCUGGGCAUGGAGUGA [Fam2.1 aminoacylation ribozyme variant]
Ans: 7.29

Q: Write down the reported self-aminoacylation of GUUCACCUAGGUCAUCGGAUG [Fam2.2 aminoacylation ribozyme variant] , test system: biotinyl-Met-oxazolone.
Ans: 0.701

Q: Query the reported self-aminoacylation for biotinyl-Met-oxazolone; item: AUGGCCCUGGUCAUCGAGUGA [Fam2.1 aminoacylation ribozyme variant]
Ans: 82.9

Q: Recorded self-aminoacylation for CUACUUCAGACAAUCGGUCUC [Fam1A.1 aminoacylation ribozyme variant] with biotinyl-Met-oxazolone, please?
Ans: 0.857

Q: Record AUUACCCUGGUCACCGAGUCA [Fam2.1 aminoacylation ribozyme variant] : what is its self-aminoacylation with biotinyl-Met-oxazolone?
Ans: 1.45

Q: Hi! What's the reported self-aminoacylation for AUUAGCCUGGUCAUCGAGAGA [Fam2.1 aminoacylation ribozyme variant] on biotinyl-Met-oxazolone?
Ans: 1.08

Q: Reported self-aminoacylation for biotinyl-Met-oxazolone, given AUUACCCUGAUCAUGGAGUGA [Fam2.1 aminoacylation ribozyme variant] ?
Ans: 10.8

Q: Notebook entry, biotinyl-Met-oxazolone assay: self-aminoacylation of AUUCACCUAGGUAAUCUGGUG [Fam2.2 aminoacylation ribozyme variant] = ?
Ans: 3.3

----------
Each entry below carries its reported self-aminoacylation.
test system: biotinyl-Leu-oxazolone; assay: self-aminoacylation, catalytic enhancement (BLO) (fold over background); higher = more active; k-Seq, kA / k0A0; sequences stand for … in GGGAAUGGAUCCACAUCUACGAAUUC…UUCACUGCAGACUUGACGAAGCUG
Fewer inactive variants are shown than the library holds.

Field: example entries. Status: answers known.
>  <SEQUENCE CONTENT>
CCAUACUUCAAGCGAUCGGUC [Fam1B.1 aminoacylation ribozyme variant]

>  <ASSAY ENDPOINT>
self-aminoacylation

>  <RESULT>
0.976

$$$$
>  <SEQUENCE CONTENT>
CUACUUCAGACAAUCGGUCUC [Fam1A.1 aminoacylation ribozyme variant]

>  <ASSAY ENDPOINT>
self-aminoacylation

>  <RESULT>
0.895

$$$$
>  <SEQUENCE CONTENT>
UCACACUUCAAGCAAGCGGUC [Fam1B.1 aminoacylation ribozyme variant]

>  <ASSAY ENDPOINT>
self-aminoacylation

>  <RESULT>
0.991

$$$$
>  <SEQUENCE CONTENT>
AUUCACCAAGGUCAUCCGGUG [Fam2.2 aminoacylation ribozyme variant]

>  <ASSAY ENDPOINT>
self-aminoacylation

>  <RESULT>
11.4

$$$$
>  <SEQUENCE CONTENT>
AAUACCCUGGUCAUCGAGGGA [Fam2.1 aminoacylation ribozyme variant]

>  <ASSAY ENDPOINT>
self-aminoacylation

>  <RESULT>
1.58

$$$$
>  <SEQUENCE CONTENT>
AAUCACCUAGAUCAUCGGGUG [Fam2.2 aminoacylation ribozyme variant]

>  <ASSAY ENDPOINT>
self-aminoacylation

>  <RESULT>
2.55

$$$$

Q: Hi! What's the reported self-aminoacylation for AUUCAGCUAGGUCAUCGCGUG [Fam2.2 aminoacylation ribozyme variant] on biotinyl-Leu-oxazolone?
Ans: 6.83

Q: Hello, I am looking for reported self-aminoacylation with biotinyl-Leu-oxazolone for AUACACCUAGGUAAUCGGGUG [Fam2.2 aminoacylation ribozyme variant] . Could you help?
Ans: 2.07

Q: Give biotinyl-Leu-oxazolone self-aminoacylation for UUUCACCUGGGUCAUCGGGUG [Fam2.2 aminoacylation ribozyme variant]
Ans: 4.95

Q: What is its self-aminoacylation for biotinyl-Leu-oxazolone? Entry: AUUCACCUACGUCAUCAGGUG [Fam2.2 aminoacylation ribozyme variant]
Ans: 2.86

Q: # value lookup — system biotinyl-Leu-oxazolone, readout self-aminoacylation, item AGUCACCUAGUUCAUCGGGUG [Fam2.2 aminoacylation ribozyme variant]
Ans: 4.05
